Quick reference for folding enthalpy among some sequences
# method: folding enthalpy; higher = less favourable; fluorescence melt of hairpins on a sequencing array, two-state fit
# testSettings: sodium 0.088 M

inputSequence: GGCTGCGGAAACACAGCC (((((.(....).)))))
unitInfo: kcal/mol
folding enthalpy: -42

inputSequence: GGATTCGGAAACGAGTTC (.(.(((....))).).)
unitInfo: kcal/mol
folding enthalpy: -18.1

inputSequence: GCACTGGGAAACCGGTGC ((((.((....)).))))
unitInfo: kcal/mol
folding enthalpy: -44.1

inputSequence: GCGAGGGTTCGC ((((....))))
unitInfo: kcal/mol
folding enthalpy: -15.7

inputSequence: GACGTGGGAAACCATGTC (((.(((....))).)))
unitInfo: kcal/mol
folding enthalpy: -42.7

inputSequence: GAGTGTGGAAACACACTC (((((((....)))))))
unitInfo: kcal/mol
folding enthalpy: -36.1
